Entry source: ChEMBL document CHEMBL1961873

List of inhibition values.
- tested.system: Serine/threonine-protein kinase PAK 3 (Homo sapiens) (UniProt O75914);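 further: mean percent inhibition of PAK3, measured in a screen of the GSK published kinase inhibitor set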
- Sequence (O75914 whole entry, looked up): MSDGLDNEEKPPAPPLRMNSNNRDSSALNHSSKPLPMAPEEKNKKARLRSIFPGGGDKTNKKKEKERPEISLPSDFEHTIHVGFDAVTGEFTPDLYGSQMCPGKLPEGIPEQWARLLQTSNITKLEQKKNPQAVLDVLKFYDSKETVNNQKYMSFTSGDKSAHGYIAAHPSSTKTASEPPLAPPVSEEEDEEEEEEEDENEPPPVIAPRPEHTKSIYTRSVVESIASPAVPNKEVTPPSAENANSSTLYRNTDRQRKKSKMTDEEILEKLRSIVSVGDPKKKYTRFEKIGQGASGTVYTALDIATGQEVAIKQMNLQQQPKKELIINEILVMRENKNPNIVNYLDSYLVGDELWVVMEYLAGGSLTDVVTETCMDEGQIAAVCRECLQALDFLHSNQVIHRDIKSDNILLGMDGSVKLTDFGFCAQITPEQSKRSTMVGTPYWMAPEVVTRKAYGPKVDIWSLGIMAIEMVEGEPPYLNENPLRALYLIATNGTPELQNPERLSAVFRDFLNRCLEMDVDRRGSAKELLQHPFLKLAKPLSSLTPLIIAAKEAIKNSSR
- run.conditions: at 0.1 µM
endpoint.name: inhibition (%)

>>> quantitative_readout("CCn1c(-c2nonc2N)nc2c(C#CC(C)(C)O)nc(O[C@@H](CN)c3ccccc3)cc21")
-0.59
>>> quantitative_readout("COc1cccc(COc2cc(-n3cnc4ccccc43)sc2C(N)=O)c1")
0.88
>>> quantitative_readout("NS(=O)(=O)c1ccc(N/C=C2\\C(=O)Nc3ccc4ncsc4c32)cc1")
5.48
>>> quantitative_readout("Cc1cc(-c2ccco2)cc(C)c1/C=C/c1cncc(-c2nn[nH]n2)c1")
0.76
>>> quantitative_readout("COc1cc2c(cc1Nc1nc(Nc3ccsc3C(N)=O)c3cc[nH]c3n1)N(C(=O)CN(C)C)CCC2")
3.92
>>> quantitative_readout("CCn1c(-c2nonc2N)nc2c(C#CC(C)(C)O)ncc(OCC3CCNCC3)c21")
5.37
>>> quantitative_readout("CCn1c(-c2nonc2N)nc2c(C#CCN)ncc(OCCCN)c21")
-1.06
>>> quantitative_readout("CCn1c(-c2nonc2N)nc2c(C#CC(C)(C)O)ncc(OC[C@@H]3CCCN3)c21")
0.61
>>> quantitative_readout("NS(=O)(=O)c1ccc(-c2ccc3c(NC(=O)C4CC4)n[nH]c3c2)cc1")
2.48

---

- tested.system: Non-receptor tyrosine-protein kinase TYK2 (Homo sapiens);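 further: values are mean percent inhibition of TYK2 kinase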
- run.conditions: at 1 µM
endpoint.name: inhibition

>>> result("COc1cccc(-n2ncc3c(N/N=C/c4ccncc4)ncnc32)c1")
"0.71%"
>>> result("Cc1cc(-c2ccco2)cc(C)c1/C=C/c1cncc(-c2nn[nH]n2)c1")
"2.63%"
>>> result("CCn1c(-c2nonc2N)nc2c(C#CC(C)(C)O)ncc(OCC3CCNCC3)c21")
"1.52%"
>>> result("Nc1nonc1-c1nc2cnccc2n1C1CCCCC1")
"6.77%"
>>> result("CCn1c(-c2nonc2N)nc2c(C#CCN)ncc(OCCCN)c21")
"5.33%"
>>> result("NS(=O)(=O)c1ccc(-c2ccc3c(NC(=O)C4CC4)n[nH]c3c2)cc1")
"-4.76%"
>>> result("COc1cc(C=NNc2ncnc3c2cnn3Cc2ccccc2)ccc1O")
"-1.56%"
>>> result("NC(=O)c1sc(-n2cnc3cc(C(F)(F)F)ccc32)cc1OCc1ccccc1Br")
"-3.05%"
>>> result("CCn1c(-c2nonc2N)nc2c(C#CC(C)(C)O)ncc(OC[C@@H]3CCCN3)c21")
"-1.89%"
>>> result("Fc1ccc(-c2ncn(C3CCNCC3)c2-c2ccnc(Oc3ccccc3)n2)cc1")
"-4.41%"
>>> result("COc1cc2c(cc1Nc1nc(Nc3ccsc3C(N)=O)c3cc[nH]c3n1)N(C(=O)CN(C)C)CCC2")
"-1.13%"

---

- tested.system: Sphingosine kinase 2 (Homo sapiens) (UniProt Q9NRA0)
- Sequence (whole entry): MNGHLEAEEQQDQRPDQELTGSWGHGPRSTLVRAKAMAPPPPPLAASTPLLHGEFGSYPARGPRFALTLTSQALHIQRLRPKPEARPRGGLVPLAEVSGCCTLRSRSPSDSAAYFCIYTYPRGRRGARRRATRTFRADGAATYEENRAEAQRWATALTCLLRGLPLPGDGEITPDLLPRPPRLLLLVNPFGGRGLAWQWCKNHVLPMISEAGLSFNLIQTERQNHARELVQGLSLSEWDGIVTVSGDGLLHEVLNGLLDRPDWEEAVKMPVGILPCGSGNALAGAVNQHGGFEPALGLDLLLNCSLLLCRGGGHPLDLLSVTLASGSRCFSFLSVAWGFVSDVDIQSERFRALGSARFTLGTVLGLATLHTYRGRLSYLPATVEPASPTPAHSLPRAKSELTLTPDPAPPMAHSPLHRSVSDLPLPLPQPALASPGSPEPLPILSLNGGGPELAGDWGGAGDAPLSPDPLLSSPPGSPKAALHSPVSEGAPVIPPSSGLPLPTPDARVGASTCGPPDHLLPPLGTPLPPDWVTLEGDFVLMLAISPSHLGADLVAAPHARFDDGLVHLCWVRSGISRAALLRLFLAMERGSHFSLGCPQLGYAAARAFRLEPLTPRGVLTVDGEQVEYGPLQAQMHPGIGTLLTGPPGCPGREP
- run.conditions: at 1 µM
- Description: GSK_PKIS: SPHK2 mean inhibition at 1 uM [Nanosyn]
endpoint.name: inhibition (%)

>>> quantitative_readout("COc1cc(C=NNc2ncnc3c2cnn3Cc2ccccc2)ccc1O")
0.11
>>> quantitative_readout("COc1cc2c(cc1Nc1nc(Nc3ccsc3C(N)=O)c3cc[nH]c3n1)N(C(=O)CN(C)C)CCC2")
-0.26
>>> quantitative_readout("NS(=O)(=O)c1ccc(-c2ccc3c(NC(=O)C4CC4)n[nH]c3c2)cc1")
-0.22
>>> quantitative_readout("COc1cccc(-n2ncc3c(N/N=C/c4ccncc4)ncnc32)c1")
-0.32
>>> quantitative_readout("Nc1nonc1-c1nc2cnccc2n1C1CCCCC1")
0.21

---

- tested.system: Homeodomain-interacting protein kinase 1 (Homo sapiens) (UniProt Q86Z02);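 further: values are mean percent inhibition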
- Sequence (Q86Z02 whole entry, looked up): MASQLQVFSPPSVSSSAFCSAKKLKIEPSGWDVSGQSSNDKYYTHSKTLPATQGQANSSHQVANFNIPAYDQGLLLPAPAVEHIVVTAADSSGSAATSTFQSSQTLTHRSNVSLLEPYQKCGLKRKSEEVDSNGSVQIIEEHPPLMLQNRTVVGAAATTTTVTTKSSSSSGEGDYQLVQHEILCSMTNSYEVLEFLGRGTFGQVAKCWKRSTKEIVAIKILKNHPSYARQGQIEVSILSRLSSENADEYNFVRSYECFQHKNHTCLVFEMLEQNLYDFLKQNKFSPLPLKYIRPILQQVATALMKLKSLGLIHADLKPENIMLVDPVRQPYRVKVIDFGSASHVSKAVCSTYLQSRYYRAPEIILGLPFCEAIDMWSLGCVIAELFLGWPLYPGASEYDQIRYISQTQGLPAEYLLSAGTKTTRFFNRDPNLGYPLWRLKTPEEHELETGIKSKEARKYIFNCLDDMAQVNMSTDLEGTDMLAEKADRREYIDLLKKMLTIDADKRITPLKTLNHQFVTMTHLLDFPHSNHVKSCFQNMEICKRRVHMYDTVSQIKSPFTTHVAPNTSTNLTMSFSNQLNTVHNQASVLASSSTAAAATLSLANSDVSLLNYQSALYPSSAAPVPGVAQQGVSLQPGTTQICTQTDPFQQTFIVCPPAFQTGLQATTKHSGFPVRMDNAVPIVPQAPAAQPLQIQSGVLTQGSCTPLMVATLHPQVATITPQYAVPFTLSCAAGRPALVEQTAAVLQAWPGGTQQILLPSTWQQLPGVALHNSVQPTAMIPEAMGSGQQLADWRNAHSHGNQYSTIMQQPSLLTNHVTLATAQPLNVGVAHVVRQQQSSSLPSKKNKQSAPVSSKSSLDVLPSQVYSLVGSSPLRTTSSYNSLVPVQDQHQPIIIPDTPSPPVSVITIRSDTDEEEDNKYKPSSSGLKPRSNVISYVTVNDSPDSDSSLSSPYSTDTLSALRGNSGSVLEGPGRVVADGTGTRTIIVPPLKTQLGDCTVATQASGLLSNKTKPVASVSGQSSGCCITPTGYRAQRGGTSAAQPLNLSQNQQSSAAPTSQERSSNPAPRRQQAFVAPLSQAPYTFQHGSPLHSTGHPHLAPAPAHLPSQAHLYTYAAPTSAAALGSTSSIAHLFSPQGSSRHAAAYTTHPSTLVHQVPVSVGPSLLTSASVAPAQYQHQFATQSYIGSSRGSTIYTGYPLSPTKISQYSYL
- run.conditions: at 1 µM
endpoint.name: inhibition (%)

>>> quantitative_readout("NS(=O)(=O)c1ccc(-c2ccc3c(NC(=O)C4CC4)n[nH]c3c2)cc1")
7.94
>>> quantitative_readout("Cc1cc(-c2ccco2)cc(C)c1/C=C/c1cncc(-c2nn[nH]n2)c1")
-0.75
>>> quantitative_readout("Nc1nonc1-c1nc2cnccc2n1C1CCCCC1")
16.1
>>> quantitative_readout("COc1cccc(COc2cc(-n3cnc4ccccc43)sc2C(N)=O)c1")
1.66
>>> quantitative_readout("CCn1c(-c2nonc2N)nc2c(C#CC(C)(C)O)nc(O[C@@H](CN)c3ccccc3)cc21")
55.3
>>> quantitative_readout("CCn1c(-c2nonc2N)nc2c(C#CC(C)(C)O)ncc(OC[C@@H]3CCCN3)c21")
6.03
>>> quantitative_readout("COc1cc2c(cc1Nc1nc(Nc3ccsc3C(N)=O)c3cc[nH]c3n1)N(C(=O)CN(C)C)CCC2")
5.85

---

- tested.system: Serine/threonine-protein kinase Chk1 (Homo sapiens) (UniProt O14757);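 further: reported figure is the mean percent inhibition of CHEK1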
- Sequence (whole entry): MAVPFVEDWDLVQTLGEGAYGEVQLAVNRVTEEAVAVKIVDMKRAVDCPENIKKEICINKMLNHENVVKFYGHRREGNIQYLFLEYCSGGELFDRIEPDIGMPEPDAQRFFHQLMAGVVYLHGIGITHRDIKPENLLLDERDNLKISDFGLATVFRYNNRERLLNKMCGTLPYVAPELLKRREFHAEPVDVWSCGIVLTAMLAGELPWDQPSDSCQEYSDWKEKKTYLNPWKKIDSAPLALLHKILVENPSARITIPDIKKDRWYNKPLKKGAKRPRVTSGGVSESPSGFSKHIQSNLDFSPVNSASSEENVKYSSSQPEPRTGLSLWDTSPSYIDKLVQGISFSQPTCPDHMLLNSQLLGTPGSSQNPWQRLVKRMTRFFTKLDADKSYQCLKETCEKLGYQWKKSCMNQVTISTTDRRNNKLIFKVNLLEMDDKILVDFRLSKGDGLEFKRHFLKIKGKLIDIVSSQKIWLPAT
- run.conditions: at 0.1 µM
List of inhibition values.
endpoint.name: inhibition (%)

>>> quantitative_readout("CCn1c(-c2nonc2N)nc2c(C#CCN)ncc(OCCCN)c21")
-3.81
>>> quantitative_readout("CCn1c(-c2nonc2N)nc2c(C#CC(C)(C)O)ncc(OC[C@@H]3CCCN3)c21")
-1.63
>>> quantitative_readout("Cc1cc(-c2ccco2)cc(C)c1/C=C/c1cncc(-c2nn[nH]n2)c1")
-8.36
>>> quantitative_readout("COc1cccc(-n2ncc3c(N/N=C/c4ccncc4)ncnc32)c1")
3.28
>>> quantitative_readout("CCn1c(-c2nonc2N)nc2c(C#CC(C)(C)O)nc(O[C@@H](CN)c3ccccc3)cc21")
-3.48
>>> quantitative_readout("Fc1ccc(-c2ncn(C3CCNCC3)c2-c2ccnc(Oc3ccccc3)n2)cc1")
-1.72
>>> quantitative_readout("NC(=O)c1sc(-n2cnc3cc(C(F)(F)F)ccc32)cc1OCc1ccccc1Br")
-0.06

---

List of inhibition values.
- tested.system: Leukocyte tyrosine kinase receptor (Homo sapiens);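 further: each value is the mean inhibition of LTK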
- run.conditions: at 1 µM
endpoint.name: inhibition (%)

>>> quantitative_readout("NC(=O)c1sc(-n2cnc3cc(C(F)(F)F)ccc32)cc1OCc1ccccc1Br")
4.03
>>> quantitative_readout("Fc1ccc(-c2ncn(C3CCNCC3)c2-c2ccnc(Oc3ccccc3)n2)cc1")
1.61
>>> quantitative_readout("Cc1cc(-c2ccco2)cc(C)c1/C=C/c1cncc(-c2nn[nH]n2)c1")
1.64
>>> quantitative_readout("COc1cc(C=NNc2ncnc3c2cnn3Cc2ccccc2)ccc1O")
-1.02

---

List of inhibition values.
- tested.system: Receptor tyrosine-protein kinase erbB-4 (Homo sapiens) (UniProt Q15303);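 further: values are averaged percent inhibition of ERBB4 kinase activity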
- Sequence (Q15303 whole entry): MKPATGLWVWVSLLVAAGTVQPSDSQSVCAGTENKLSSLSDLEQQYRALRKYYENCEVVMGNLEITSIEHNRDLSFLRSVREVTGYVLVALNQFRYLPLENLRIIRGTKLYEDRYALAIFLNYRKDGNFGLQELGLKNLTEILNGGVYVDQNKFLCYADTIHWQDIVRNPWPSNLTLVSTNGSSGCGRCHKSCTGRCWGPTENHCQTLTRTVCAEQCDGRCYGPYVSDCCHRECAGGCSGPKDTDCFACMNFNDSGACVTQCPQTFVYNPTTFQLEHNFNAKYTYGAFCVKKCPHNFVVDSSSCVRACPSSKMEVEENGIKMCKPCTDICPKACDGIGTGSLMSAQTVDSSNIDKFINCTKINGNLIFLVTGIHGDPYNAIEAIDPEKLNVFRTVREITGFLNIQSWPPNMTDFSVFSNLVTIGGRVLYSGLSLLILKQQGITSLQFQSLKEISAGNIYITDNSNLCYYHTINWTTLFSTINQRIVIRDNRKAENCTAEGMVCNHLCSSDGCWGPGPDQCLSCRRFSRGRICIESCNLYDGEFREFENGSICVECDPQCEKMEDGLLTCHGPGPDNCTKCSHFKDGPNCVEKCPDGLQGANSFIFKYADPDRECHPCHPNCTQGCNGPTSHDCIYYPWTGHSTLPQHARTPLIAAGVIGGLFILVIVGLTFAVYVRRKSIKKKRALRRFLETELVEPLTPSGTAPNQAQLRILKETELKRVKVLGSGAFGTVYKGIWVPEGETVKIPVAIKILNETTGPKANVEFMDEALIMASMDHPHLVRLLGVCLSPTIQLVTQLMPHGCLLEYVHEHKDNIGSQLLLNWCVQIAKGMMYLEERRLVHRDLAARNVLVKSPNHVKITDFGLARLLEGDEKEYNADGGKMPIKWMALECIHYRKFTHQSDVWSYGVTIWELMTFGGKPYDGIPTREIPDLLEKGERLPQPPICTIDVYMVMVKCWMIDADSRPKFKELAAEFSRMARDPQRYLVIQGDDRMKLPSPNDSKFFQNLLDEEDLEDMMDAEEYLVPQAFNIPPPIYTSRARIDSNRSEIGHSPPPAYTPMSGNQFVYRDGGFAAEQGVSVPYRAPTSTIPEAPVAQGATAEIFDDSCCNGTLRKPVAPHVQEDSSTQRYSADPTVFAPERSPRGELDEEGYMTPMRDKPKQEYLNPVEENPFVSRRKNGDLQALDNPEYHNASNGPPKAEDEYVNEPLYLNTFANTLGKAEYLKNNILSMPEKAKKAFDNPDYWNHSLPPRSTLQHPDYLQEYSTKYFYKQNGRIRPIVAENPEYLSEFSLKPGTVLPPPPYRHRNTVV
- run.conditions: at 0.1 µM
endpoint.name: inhibition (%)

>>> quantitative_readout("CCn1c(-c2nonc2N)nc2c(C#CCN)ncc(OCCCN)c21")
-7.51
>>> quantitative_readout("CCn1c(-c2nonc2N)nc2c(C#CC(C)(C)O)ncc(OCC3CCNCC3)c21")
2.93
>>> quantitative_readout("CCn1c(-c2nonc2N)nc2c(C#CC(C)(C)O)ncc(OC[C@@H]3CCCN3)c21")
1.3
>>> quantitative_readout("NC(=O)c1sc(-n2cnc3cc(C(F)(F)F)ccc32)cc1OCc1ccccc1Br")
5.4
>>> quantitative_readout("COc1cccc(COc2cc(-n3cnc4ccccc43)sc2C(N)=O)c1")
1.74
>>> quantitative_readout("COc1cccc(-n2ncc3c(N/N=C/c4ccncc4)ncnc32)c1")
9.63
>>> quantitative_readout("NS(=O)(=O)c1ccc(-c2ccc3c(NC(=O)C4CC4)n[nH]c3c2)cc1")
8.86
>>> quantitative_readout("CCn1c(-c2nonc2N)nc2c(C#CC(C)(C)O)nc(O[C@@H](CN)c3ccccc3)cc21")
1.38
>>> quantitative_readout("COc1cc2c(cc1Nc1nc(Nc3ccsc3C(N)=O)c3cc[nH]c3n1)N(C(=O)CN(C)C)CCC2")
8.03
